The measured values listed here are drawn from patent US10118935B2.

System: NCI-H322M
METHOD_NOTES: NCI 60 cell line five dose, Non-Small Cell Lung Cancer
METRIC: TGI (µM)
Numbers only, in µM.

Examples with their reported TGI follow.
C=C1C(=O)O[C@H]2[C@H]1CC/C(COC(=O)CCC(=O)NCCCCCCCCNC(=O)CCC(=O)OC/C1=C/CC[C@@]3(C)O[C@H]3[C@H]3OC(=O)C(=C)[C@@H]3CC1)=C\CC[C@@]1(C)O[C@@H]21 : 31.4
C=C1C(=O)O[C@H]2[C@H]1CC/C(COC(=O)NCCCCCNC(=O)OC/C1=C/CC[C@@]3(C)O[C@H]3[C@H]3OC(=O)C(=C)[C@@H]3CC1)=C\CC[C@@]1(C)O[C@@H]21 : 41.6
C=C1C(=O)O[C@H]2[C@H]1CC/C(COC(=O)CCC(=O)NCCCCCCCCCNC(=O)CCC(=O)OC/C1=C/CC[C@@]3(C)O[C@H]3[C@H]3OC(=O)C(=C)[C@@H]3CC1)=C\CC[C@@]1(C)O[C@@H]21 : 31.6

Now consider a different compound.
Incoming: Tell me reported TGI for `C=C1C(=O)O[C@H]2[C@H]1CC/C(COC(=O)NCCCCNC(=O)OC/C1=C/CC[C@@]3(C)O[C@H]3[C@H]3OC(=O)C(=C)[C@@H]3CC1)=C\CC[C@@]1(C)O[C@@H]21` , tested with NCI-H322M.
Outgoing: 25.8
